biological target: β2AR-Nterm-hTA1-F112^3.41W (CryoEM Construct) (Homo sapiens, UniProt Q96RJ0, F112W); construct: FLAG (N); 10xHis (N); TEV protease site (N); expressed in transfected cells; host or cells: HEK293T; assay: GloSensor cAMP accumulation assay, cryoEM construct; type: cell-based; settings: CryoEM Construct; n=2; read-out: EC50;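 note: cells transiently co-transfected with the receptor construct and GloSensor cAMP biosensor, luminescence read after 30 min compound exposure at room temperature in the dark as cAMP accumulation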
pEC50: −log10 of the molar value.
Record Criterion met whenever pEC50 is at 8 or higher; record Criterion not met when lower.

Input: Given "NCCc1ccccc1" , state whether its pEC50 is at least 8.
Output: Criterion not met

Input: Would you mind doing "Cc1c(F)cccc1[C@H]1COC(N)=N1" as well?
Output: Criterion met

Input: Try "NCCc1ccc(O)cc1" next.
Output: Criterion not met

Input: And what about the compound "NCCc1ccc(Oc2ccc(O)cc2)c(I)c1" ?
Output: Criterion not met

Input: CN1CC2c3ccccc3Oc3ccc(Cl)cc3C2C1 (centres unmarked) , same question.
Output: Criterion not met

###

Biological target: hTA1 V184P (Homo sapiens, UniProt Q96RJ0, V184P)
Construct: expressed in transfected cells; host or cells: HEK293T
Sequence (Q96RJ0 1-339 V184P): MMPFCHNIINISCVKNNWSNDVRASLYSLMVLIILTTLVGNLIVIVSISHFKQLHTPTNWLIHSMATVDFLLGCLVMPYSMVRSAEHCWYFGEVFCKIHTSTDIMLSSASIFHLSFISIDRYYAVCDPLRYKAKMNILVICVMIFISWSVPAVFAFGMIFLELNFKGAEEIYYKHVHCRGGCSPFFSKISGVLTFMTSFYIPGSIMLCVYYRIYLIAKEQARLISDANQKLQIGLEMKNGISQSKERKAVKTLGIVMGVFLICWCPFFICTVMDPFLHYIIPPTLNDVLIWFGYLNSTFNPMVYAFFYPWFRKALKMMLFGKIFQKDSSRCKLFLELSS
Assay: GloSensor cAMP accumulation assay, V184P mutant
Assay type: cell-based
Conditions: pEC50 ± SEM, V184P; n=2
QUANTITY NAME: pEC50
Give only the number. pEC50 is defined as minus log10 of concentration in molar units.

Input: Need pEC50 of CCC(CC1COC(N)=N1)c1ccccc1 (stereo not shown) [Ro5256390] , thanks.
Output: 8.48

###

target: hTA1 W264F (Homo sapiens, UniProt Q96RJ0, W264F); construct: expressed in transfected cells; host or cells: HEK293T; assay: GloSensor cAMP accumulation assay, W264F mutant; assay type: cell-based; settings: W246F mutant (so in the source); β-PEA = 100; each line an independent experiment, 3 replicates;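 note: cells transiently transfected with receptor plus GloSensor, luminescence read 30 min after agonist addition at room temperature, concentration-response curves fitted by log(agonist) vs response regression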
QUANTITY NAME: Emax values, Mean
Would you mind answering with just the numeric figure?

Input: Which Emax values, Mean reading was recorded for the compound "NCCc1ccc(Oc2ccc(O)cc2)c(I)c1" ?
Output: 17.7915

Input: # iterate: "NCCc1ccccc1"
Output: 100

Input: Entry to check: "CCc1[nH]nc(C(=O)Nc2ccc([C@H]3CNCCO3)cc2)c1C"
Output: 47.4013

Input: Also need "NCCc1ccc(O)cc1" , thanks.
Output: 99.2183

###

biological target: hTA1 C88S (Homo sapiens, UniProt Q96RJ0, C88S); construct: expressed in transfected cells; host or cells: HEK293T; test: GloSensor cAMP accumulation assay, C88S mutant; format: cell-based; settings: C88S; n=2; read-out: EC50
QUANTITY NAME: EC50 (nM)
Please reply with the bare figure in nM and do not write the unit itself.

Input: Please give the measured EC50 for this molecule: "Cc1c(F)cccc1[C@H]1COC(N)=N1"
Output: 1.64

Input: CN1CC2c3ccccc3Oc3ccc(Cl)cc3C2C1 (centres unmarked) , same question.
Output: 238

Input: # iterate: "NCCc1ccc(Oc2ccc(O)cc2)c(I)c1"
Output: 690

Input: Then this molecule: "NCCc1ccc(O)cc1"
Output: 375

Input: Next: "NCCc1ccccc1"
Output: 84.1

###

Molecular target: hTA1 S107C (Homo sapiens, UniProt Q96RJ0, S107C)
Construct: expressed in transfected cells; host or cells: HEK293T
Sequence (Q96RJ0 1-339 S107C): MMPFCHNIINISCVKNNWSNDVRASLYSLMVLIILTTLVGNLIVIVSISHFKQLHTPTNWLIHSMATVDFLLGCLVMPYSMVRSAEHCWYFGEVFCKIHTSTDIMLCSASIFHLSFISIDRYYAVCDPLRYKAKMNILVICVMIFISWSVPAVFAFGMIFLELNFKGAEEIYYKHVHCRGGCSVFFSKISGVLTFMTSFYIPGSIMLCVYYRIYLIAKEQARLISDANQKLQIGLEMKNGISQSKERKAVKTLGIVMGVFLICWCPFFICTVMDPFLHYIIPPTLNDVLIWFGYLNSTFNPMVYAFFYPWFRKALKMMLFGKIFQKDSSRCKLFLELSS
Test: GloSensor cAMP accumulation assay, S107C mutant;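 note: cells transiently co-expressing receptor and GloSensor biosensor, luminescence read after 30 min agonist exposure at room temperature, concentration-response fitted by nonlinear regression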
Assay type: cell-based
Settings: EC50, S107C; n=2
QUANTITY NAME: EC50 (nM)
// return numeric value only (unit: nM, not printed)

Input: Find the measured EC50: item CCC(CC1COC(N)=N1)c1ccccc1 (stereo not shown) , target or system hTA1 S107C (Homo sapiens, UniProt Q96RJ0, S107C).
Output: 504

###

target: hTA1 C5S (Homo sapiens, UniProt Q96RJ0, C5S); construct: expressed in transfected cells; host or cells: HEK293T; test: GloSensor cAMP accumulation assay, C5S mutant; format: cell-based; details: pEC50 ± SEM, C5S; n=2
QUANTITY NAME: EC50 (µM)
Reply with just the number (in µM).

Input: Need EC50 of CCC(CC1COC(N)=N1)c1ccccc1 (stereo not shown) , thanks.
Output: 0.01

###

Biological target: hTA1 C178S (Homo sapiens, UniProt Q96RJ0, C178S)
Construct: expressed in transfected cells; host or cells: HEK293T
Sequence (Q96RJ0 1-339 C178S): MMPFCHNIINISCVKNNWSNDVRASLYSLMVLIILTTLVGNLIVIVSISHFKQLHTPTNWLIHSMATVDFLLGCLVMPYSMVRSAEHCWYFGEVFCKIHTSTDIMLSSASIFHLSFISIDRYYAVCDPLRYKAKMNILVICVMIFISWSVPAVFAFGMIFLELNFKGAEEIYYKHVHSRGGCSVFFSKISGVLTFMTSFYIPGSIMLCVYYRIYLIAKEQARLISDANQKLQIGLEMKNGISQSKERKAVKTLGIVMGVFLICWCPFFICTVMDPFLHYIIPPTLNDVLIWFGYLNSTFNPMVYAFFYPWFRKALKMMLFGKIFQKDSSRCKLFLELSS
Experiment: GloSensor cAMP accumulation assay, C178S mutant
Assay type: cell-based
Conditions: C178S; n=2; read-out: EC50
Consider the cut-off 60 nM. If the recorded EC50 is strictly smaller, the label is T; if not, the label is F.

Input: Hi there! Is EC50 for CN1CC2c3ccccc3Oc3ccc(Cl)cc3C2C1 (centres unmarked) [asenapine] below 60 nM, do you know?
Output: F

Input: Next: Cc1c(F)cccc1[C@H]1COC(N)=N1 [Ro5263397]
Output: T

Input: Same read-out for NCCc1ccc(Oc2ccc(O)cc2)c(I)c1 [T1AM, 3-iodothyronamine] ?
Output: F

Input: Follow-up entry: NCCc1ccc(O)cc1 [TYR, tyramine]
Output: F

###

Could you please report measured Emax values, Mean for the items listed next?
target: hTA1 V184P (Homo sapiens, UniProt Q96RJ0, V184P); construct: expressed in transfected cells; host or cells: HEK293T; experiment: GloSensor cAMP accumulation assay, V184P mutant; format: cell-based; conditions: hTA1 V184P mutant; β-PEA set to 100; each grid row a separate experiment, 3 replicates
Answer with the value's number alone.

Input: Look up Emax values, Mean: NCCc1ccc(O)cc1 [TYR, tyramine]
Output: 99.5188

Input: // repeat for CCC(CC1COC(N)=N1)c1ccccc1 (stereo not shown) [Ro5256390] and report
Output: 78.2024

Input: Would you mind doing NCCc1ccccc1 [β-PEA, β-phenethylamine] as well?
Output: 100

Input: Note, next up: CCc1[nH]nc(C(=O)Nc2ccc([C@H]3CNCCO3)cc2)c1C [ralmitaront]
Output: 48.8655

###

target: hTA1 (Homo sapiens, UniProt Q96RJ0); construct: expressed in transfected cells; host or cells: HEK293T; assay: GloSensor cAMP accumulation assay, concentration response, wild-type hTA1 in transfected HEK293T cells; type: cell-based; conditions: WT; average of the experiments; β-PEA = 100;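 note: luminescence read after 30 min compound exposure at room temperature in cells preloaded with D-Luciferin, reflecting Gs-driven cAMP rise, efficacy scaled to the maximal β-PEA response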
Consider the following compounds; for each one, report its Emax values, Avg.
Respond using a number only.

Input: Find the recorded Emax values, Avg belonging to CCC(CC1COC(N)=N1)c1ccccc1 (stereo not drawn) and report it.
Output: 103.3

Input: Item: "NCCc1ccc(Oc2ccc(O)cc2)c(I)c1"
Output: 70.45

Input: Record: "Cc1c(F)cccc1[C@H]1COC(N)=N1"
Output: 86.7

Input: Try this compound too: "NCCc1ccc(O)cc1"
Output: 98.98

Input: Thanks! And "NCCc1ccccc1" ?
Output: 100

Input: // same read-out, input: "CCc1[nH]nc(C(=O)Nc2ccc([C@H]3CNCCO3)cc2)c1C"
Output: 40.11
